- Tested on: HT-1080 cells expressing IDH1R132C
- experiment-summary: 2-HG production inhibitory activity using HT1080 cell
- Format: cell-based, human
- condition-context: Homo sapiens, HT-1080; 2-HG production, HT1080 cells; read-out: Test Example 3 IC50
pIC50: −log10 of the molar value.
Please mark True if the recorded pIC50 is equal to or greater than 7, and False if it falls below.

>>> print(df.to_string())
                                   compound  label
0  C=CC(=O)N1CCC(c2onc(-c3ccc(Cl)c(F)c3Cl)c2C(=O)n2cc3c4c(cccc42)/C(=C/C(=O)O)CC3)CC1 [Example 130]   True
1  O=C(O)/C=C/c1cccc2c1ccn2C(=O)c1c(-c2c(Cl)cccc2Cl)noc1N1CCCC1 [Example 135]  False
2  CCC1(c2onc(-c3c(Cl)cccc3Cl)c2C(=O)n2ccc3c(/C=C/C(=O)O)cccc32)COC1 [Example 5]   True
3  O=C(O)/C=C/c1cccc2c1ccn2C(=O)c1c(-c2c(Cl)cccc2Cl)noc1N1CCOCC1 [Example 136]  False
4  Cc1cn(C(=O)c2c(-c3c(Cl)cccc3Cl)noc2C(C)C)c2cccc(/C=C/C(=O)O)c12 [Example 25]  False

Now look at this entry.
IN: Does the compound Cc1cn(C(=O)c2c(-c3ccc(Cl)cc3Cl)noc2C2(C)COC2)c2cccc(/C=C/C(=O)O)c12 [Example 78] have recorded pIC50 that is 7 or more?
OUT: False

----------
- target-entity: IDH1R132C (Homo sapiens (Human), UniProt O75874, R132C)
- Sequence (O75874 whole entry R132C): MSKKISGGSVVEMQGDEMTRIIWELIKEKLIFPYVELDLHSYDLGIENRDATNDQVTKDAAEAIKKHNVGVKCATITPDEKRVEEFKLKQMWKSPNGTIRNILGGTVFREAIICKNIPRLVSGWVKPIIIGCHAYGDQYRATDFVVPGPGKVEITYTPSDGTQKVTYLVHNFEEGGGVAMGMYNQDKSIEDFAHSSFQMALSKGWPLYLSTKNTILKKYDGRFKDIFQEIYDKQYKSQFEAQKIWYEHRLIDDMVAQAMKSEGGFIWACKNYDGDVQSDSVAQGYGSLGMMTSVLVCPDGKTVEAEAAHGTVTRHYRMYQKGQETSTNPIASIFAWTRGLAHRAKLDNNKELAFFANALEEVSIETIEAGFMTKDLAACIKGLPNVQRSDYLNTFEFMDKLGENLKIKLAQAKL
- experiment-summary: Inhibitory activity against IDH1R132C enzyme (NADPH detection, WST-8)
- condition-context: 10 nM, residual NADPH detected with WST-8, read-out: Test Example 1 IDH1 R132C IC50
Catalogue of compounds with associated IC50
Give the number; nM is assumed, so skip it.

Sample answers from the record:
>>> df
                                   compound  metric_name  measured_number
0  O=C(O)/C=C/c1cccc2c1ccn2C(=O)c1c(-c2c(Cl)cc(Cl)cc2Cl)noc1C1(F)COC1 [Example 6]         IC50              151
1  CCc1cn(C(=O)c2c(-c3c(Cl)cc(Cl)cc3Cl)noc2C(C)(C)F)c2cccc(/C=C/C(=O)O)c12 [Example 65]         IC50              198
2  Cc1cn(C(=O)c2c(-c3c(Cl)cccc3Cl)noc2C(C)(C)F)c2cccc(/C=C/C(=O)O)c12 [Example 53]         IC50              163
3  C=CC(=O)N1CC2(CC2)N(c2onc(-c3c(F)cccc3Cl)c2C(=O)n2cc(C)c3c(/C=C/C(=O)O)cccc32)C[C@H]1C [Example 162]         IC50               95

# input for lookup
Field IC50 (entry Cc1cn(C(=O)c2c(-c3c(Cl)ccc(F)c3Cl)noc2C(C)C)c2cccc(/C=C/C(=O)O)c12 [Example 30] ) reads 114

----------
- target-entity: IDH1R132C (Homo sapiens (Human), UniProt O75874, R132C)
- experiment-summary: Inhibitory activity against IDH1R132C enzyme (NADPH detection, WST-8)
- condition-context: 10 nM, residual NADPH detected with WST-8, read-out: Test Example 1 IDH1 R132C IC50
metric-name: log10 IC50 (log10 of the value in nM)
Annotation: log10 of IC50, nM basis.

Sample answers from the record:
                                   compound  measured_number
0  CC(C)(C)c1onc(-c2c(F)cc(Cl)cc2Cl)c1C(=O)n1ccc2c(/C=C/C(=O)O)cccc21 [Example 35]             2.21
1  C#CC(=O)N1CC(c2onc(-c3c(Cl)cc(Cl)cc3Cl)c2C(=O)n2ccc3c(/C=C/C(=O)O)cccc32)C1 [Example 101]             2.28
2  CNC1(c2onc(-c3c(Cl)cc(Cl)cc3Cl)c2C(=O)n2cc3c4c(cccc42)/C(=C/C(=O)O)CC3)CC1 [Example 86]             1.90
3  CC(C)c1onc(-c2c(Cl)ccc(F)c2Cl)c1C(=O)n1ccc2c(/C=C/C(=O)O)cccc21 [Example 28]             1.95
4  CC1(c2onc(-c3c(Cl)cccc3Cl)c2C(=O)n2ccc3c(/C=C/C(=O)O)cccc32)CCO1 (stereo not shown) [Example 77]             1.97

Field log10 IC50 (entry COC(C)(C)c1onc(-c2c(Cl)cccc2Cl)c1C(=O)n1ccc2c(/C=C/C(=O)O)cccc21 [Example 27] ) reads 2.20

Field log10 IC50 (entry CC(C)(C)c1onc(-c2c(Cl)cc(Cl)cc2Cl)c1C(=O)N1CCc2c(/C=C/C(=O)O)cccc21 [Example 32] ) reads 2.25

Field log10 IC50 (entry CC(C)(F)c1onc(-c2c(Cl)cc(Cl)cc2Cl)c1C(=O)n1cc2c3c(cccc31)/C(=C/C(=O)O)CC2 [Example 13] ) reads 2.17

Field log10 IC50 (entry CC(=O)c1cn(C(=O)c2c(-c3c(Cl)cc(Cl)cc3Cl)noc2C(C)(C)F)c2cccc(/C=C/C(=O)O)c12 [Example 64] ) reads 2.95

----------
- Tested on: HT-1080 cells expressing IDH1R132C
- experiment-summary: 2-HG production inhibitory activity using HT1080 cell
- Assay type: cell-based, human
- condition-context: Homo sapiens, HT-1080; 2-HG production, HT1080 cells; read-out: Test Example 3 IC50
- Experimental: Then, 100 μL of growth medium B was added to each well, further 25 μL of a solution of each compound diluted to a predetermined concentration with growth medium B was added to each well, and the cells were incubated at 37° C. for 2 days under 5% CO2. […] Then, 150 μL of ultrapure water was further added to each well, and the mixture was stirred by pipetting and stored at −20° C. The preserved solutions were thawed at room temperature.
Catalogue of compounds with associated pIC50
Recall that pIC50 is obtained by taking minus log10 of the concentration measured in molar.

Sample answers from the record:
>>> print(df.to_string())
                                   compound  measured_number
0  Cc1cc(Cl)c(-c2noc(C(C)(C)C)c2C(=O)n2ccc3c(/C=C/C(=O)O)cccc32)c(Cl)c1             6.70
1  C=CC(=O)N1CCC(COC)(c2onc(-c3c(Cl)cc(Cl)cc3Cl)c2C(=O)n2ccc3c(/C=C/C(=O)O)cccc32)CC1             7.29
2  COC1(c2onc(-c3c(Cl)cc(Cl)cc3Cl)c2C(=O)n2ccc3c(/C=C/C(=O)O)cccc32)COC1             7.22
3  C=CC(=O)N1CCC(OC)(c2onc(-c3c(Cl)cc(Cl)cc3Cl)c2C(=O)n2cc(C)c3c(/C=C/C(=O)O)cccc32)CC1             8.70

Field pIC50 (entry CC(C)(F)c1onc(-c2c(Cl)cc(Cl)cc2Cl)c1C(=O)n1cc2c3c(c(F)ccc31)/C(=C/C(=O)O)CC2 ) reads 7.02

Field pIC50 (entry CC(C)(F)c1onc(-c2c(Cl)cc(Cl)cc2Cl)c1C(=O)n1ccc2c(/C=C/C(=O)O)cccc21 ) reads 6.77

Field pIC50 (entry CC(C)c1onc(-c2c(Cl)cc(Cl)cc2Cl)c1C(=O)n1ccc2c(/C=C/C(=O)O)cccc21 ) reads 6.61

----------
- target-entity: IDH1R132C (Homo sapiens (Human), UniProt O75874, R132C)
- experiment-summary: Inhibitory activity against IDH1R132C enzyme (NADPH detection, WST-8)
- condition-context: 10 nM, residual NADPH detected with WST-8, read-out: Test Example 1 IDH1 R132C IC50
Catalogue of compounds with associated IC50
Give the number; nM is assumed, so skip it.

                                   compound  metric_name  readout_unit  measured_number
0  CN(C)c1onc(-c2c(Cl)cc(Cl)cc2Cl)c1C(=O)n1ccc2c(/C=C/C(=O)O)cccc21 [Example 138]         IC50            nM               88
1  C=CC(=O)N1CCN(c2onc(-c3c(Cl)cc(Cl)cc3Cl)c2C(=O)n2ccc3c(/C=C/C(=O)O)cccc32)CC1 [Example 143]         IC50            nM              150
2  Cc1cn(C(=O)c2c(-c3c(Cl)cc(Cl)cc3Cl)noc2C(C)(C)C)c2cccc(/C=C/C(=O)O)c12 [Example 33]         IC50            nM              193

# input for lookup
Field IC50 (entry CNC(C)(C)c1onc(-c2c(Cl)cc(Cl)cc2Cl)c1C(=O)n1cc(C)c2c(/C=C/C(=O)O)cccc21 [Example 84] ) reads 80
